Assay: p53 small molecule agonists, cell-based qHTS assay: qHTS cell viability counter screen (AID 1963581); also: % is scaled to controls: 0 for no effect and ±100 for the full control effect; nearly all actives have a fitted effect of over 45% in size
Conditions: p53RE-bla HCT-116 viability, ATP luminescence, 16 h; series mostly up to 66 µM
Results filed as inconclusive are left out. Active and inactive are the calls of the source. Calls follow the shape of the full dose curve.
outcome measure: activity change, negative = cytotoxicity

compound=N#Cc1cc(NC(=O)C(=O)O)c(Cl)c(NC(=O)C(=O)O)c1 outcome_measure="activity change, negative = cytotoxicity" experimental_result=inactive
compound=N[C@H](C(=O)O)c1ccc(O)cc1 outcome_measure="activity change, negative = cytotoxicity" experimental_result="-1.01% [at 13.5 µM] (inactive)"
compound="CCCOC(=O)C(C)O (stereo not drawn)" outcome_measure="activity change, negative = cytotoxicity" experimental_result=inactive
compound="CC1OC1C1CCC2(C)OC2C1 (stereo not drawn)" outcome_measure="activity change, negative = cytotoxicity" experimental_result=inactive
compound=COc1ccccc1NC(=O)CC(C)=O outcome_measure="activity change, negative = cytotoxicity" experimental_result=inactive
compound=O=S(=O)(O)c1cccc(S(=O)(=O)O)c1 outcome_measure="activity change, negative = cytotoxicity" experimental_result=inactive
compound=CC(C)(C)c1ccc(O)c(C(C)(C)C)c1 outcome_measure="activity change, negative = cytotoxicity" experimental_result=inactive
compound=CCCCCCCC(=O)OCCCCCC outcome_measure="activity change, negative = cytotoxicity" experimental_result=inactive
compound=Nc1cc(C(Cl)=C(Cl)Cl)c(S(N)(=O)=O)cc1S(N)(=O)=O outcome_measure="activity change, negative = cytotoxicity" experimental_result=inactive
compound=O=C(c1ccc(Cl)cc1)c1ccc(Cl)cc1 outcome_measure="activity change, negative = cytotoxicity" experimental_result=inactive
compound="CC(C)CC(O)Cc1ccccc1 (stereo not drawn)" outcome_measure="activity change, negative = cytotoxicity" experimental_result=inactive
compound=CCCCCCCCCCCC(=O)OC[C@@H](O)[C@H]1OC[C@H](OCCO)[C@H]1OCCO outcome_measure="activity change, negative = cytotoxicity" experimental_result=inactive
compound=COC(=O)c1ccc(C(=O)OC)cc1 outcome_measure="activity change, negative = cytotoxicity" experimental_result=inactive

* * *

Test: Nuclear factor erythroid 2-related factor 2/antioxidant responsive element (Nrf2/ARE) small molecule agonists: luciferase reporter gene qHTS assay in human keratinocytes (AID 1919969); also: nearly all actives have a fitted effect of over 35% in size
Conditions: KeratinoSens HaCaT ARE-luciferase, luminescence, 24 h; series mostly up to 92.4 µM
Description: National Center for Advancing Translational Sciences [NCATS] Division of Preclinical Innovation [DPI] U.S. Environmental Protection Agency [EPA] National Institutes of Environmental Health Sciences [NIEHS] National Toxicology Program [NTP] […] Oxidative stress has been implicated in the pathogenesis of a variety of diseases ranging from cancer to neurodegeneration. […] The activation of the report gene under culture conditions can be detected by ONE-Glo Luciferase Assay System (Promega, Madison, WI). […]
Inconclusive results are not listed. Active and inactive are the calls of the source. Calls come from the whole dose curve.
Outcomes: yes (1) = active, no (0) = inactive

compound=CC(=O)c1sc(C)nc1C class_name="no (0)"
compound=CC[C@]12CCCN3CCc4c(n(c5ccccc45)[C@@](O)(C(=O)OC)C1)[C@@H]32 class_name="no (0)"
compound=O=C(CCN1CCN(CCO)CC1)N1c2ccccc2Sc2ccc(C(F)(F)F)cc21 class_name="no (0)"
compound=O=C(O)CNC(=O)c1ccccc1I class_name="no (0)"
compound=CCC(C)(C)CC class_name="no (0)"
compound=O=C1OC2(c3ccccc31)c1cc(Br)c(O)c(Br)c1Oc1c2cc(Br)c(O)c1Br class_name="no (0)"
compound=CC(=O)N(O)CCCCCNC(=O)CCC(=O)N(O)CCCCCNC(=O)CCC(=O)N(O)CCCCCN class_name="no (0)"
compound=CCCCOCCOCCOCCO class_name="no (0)"
compound=CC1=CCC(C(C)C)=CC1 class_name="no (0)"
compound="CC1OC1C1CCC2(C)OC2C1 (stereo not drawn)" class_name="no (0)"
compound=OCCCCl class_name="no (0)"
compound=OCC#CCO class_name="no (0)"
compound="CC1=C(CC(=O)O)c2cc(F)ccc2/C1=C\\c1ccc(S(C)=O)cc1 (stereo not drawn)" class_name="no (0)"
compound=CCCCCCCCCCCCCCCCC class_name="no (0)"
compound=Fc1c(F)c(F)c(Br)c(F)c1F class_name="no (0)"
compound=CC(=O)c1ccccc1O class_name="no (0)"
compound=CCCCOCCOCCOCCCC class_name="no (0)"
compound=CCO[Si](CCCN=C=O)(OCC)OCC class_name="no (0)"
compound=COC(=O)c1ccc(C(=O)OC)cc1 class_name="no (0)"
compound=O=S(=O)(O)c1cccc2c(S(=O)(=O)O)cccc12 class_name="no (0)"
compound=CCCCCCCCCCCCCCCC[N+](C)(C)CC class_name="no (0)"
compound=Cn1cnc2c1c(=O)[nH]c(=O)n2C class_name="no (0)"
compound=CCCCc1ncc(/C=C(\Cc2cccs2)C(=O)O)n1Cc1ccc(C(=O)O)cc1 class_name="no (0)"
compound=COC(c1ccccc1)(c1ccccc1)[C@H](Oc1nc(C)cc(C)n1)C(=O)O class_name="no (0)"
compound=[Cl][In]([Cl])[Cl] class_name="yes (1)"
compound=COc1cc(CCC(C)=O)ccc1O class_name="no (0)"
compound=C[C@@H](O)[C@H]1C(=O)N2C(C(=O)O)=C([C@H]3CCCO3)S[C@H]12 class_name="no (0)"
compound=NCCNCCNCCNCCN class_name="no (0)"
